Biological target: adenosine 1 receptor (Homo sapiens)
Construct: expressed in transfected cells; host or cells: CHO cells
Sequence (P30542 1-326): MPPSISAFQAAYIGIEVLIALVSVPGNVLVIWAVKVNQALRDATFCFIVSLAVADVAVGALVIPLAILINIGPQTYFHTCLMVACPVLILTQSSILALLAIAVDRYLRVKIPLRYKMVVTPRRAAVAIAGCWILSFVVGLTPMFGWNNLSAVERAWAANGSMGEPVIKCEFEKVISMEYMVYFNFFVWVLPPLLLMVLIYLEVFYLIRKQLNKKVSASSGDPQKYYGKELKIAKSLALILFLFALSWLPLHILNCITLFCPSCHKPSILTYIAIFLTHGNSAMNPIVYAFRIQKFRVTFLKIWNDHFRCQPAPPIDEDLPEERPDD
Assay: Agonist activity, CHO cells transfected with human adenosine receptor and CRE-SPAP reporter; forskolin-enhanced cAMP (A1)
Assay type: cell-based
Settings: ratio to NECA; CHO cells, SPAP readout
Provide the recorded A1, EC50 as a ratio of that of NECA for the entries that follow.

// map CCC(CC)Nc1nc(NCCN2CCCCC2)nc2c1ncn2C1OC(c2nc(C3CC3)no2)C(O)C1O (stereo not drawn) to recorded A1, EC50 as a ratio of that of NECA (system: adenosine 1 receptor (Homo sapiens))
912.1

Would you kindly repeat that for `CCc1noc([C@H]2O[C@@H](n3cnc4c(NCC(c5ccccc5)c5ccccc5)nc(NCCN5CCOCC5)nc43)[C@H](O)[C@@H]2O)n1.O=CO` ?
6452

Would you kindly repeat that for CCc1noc(C2OC(n3cnc4c(NCCC(C)(C)C)nc(NCCc5cn(C)cn5)nc43)C(O)C2O)n1.O=CO.O=CO (stereo not drawn) ?
16.84

Would you kindly repeat that for `Cc1noc([C@H]2O[C@@H](n3cnc4c(NCC(c5ccccc5)c5ccccc5)nc(NCCc5cn(C)cn5)nc43)[C@H](O)[C@@H]2O)n1.O=C(O)C(F)(F)F.O=C(O)C(F)(F)F` ?
1306

Would you kindly repeat that for CCc1noc(C2OC(n3cnc4c(NCC(c5ccccc5)c5ccccc5)nc(NCCN5CCCC5)nc43)C(O)C2O)n1.O=CO.O=CO (stereo not drawn) ?
4505.4

Would you kindly repeat that for `CCc1noc([C@H]2O[C@@H](n3cnc4c(NCC(c5ccccc5)c5ccccc5)nc(NCCN5CCCCC5)nc43)[C@H](O)[C@@H]2O)n1.O=CO` ?
7521

Would you kindly repeat that for `CCC(CC)Nc1nc(N[C@H]2CCC[C@@H]2O)nc2c1ncn2[C@@H]1O[C@H](c2nc(C)no2)[C@@H](O)[C@H]1O.O=CO` ?
>5264

Would you kindly repeat that for CCc1noc(C2OC(n3cnc4c(NCCC5CCCCC5)nc(NCCc5cn(C)cn5)nc43)C(O)C2O)n1.O=CO.O=CO (stereo not drawn) ?
4993.28

Would you kindly repeat that for `CCc1noc([C@H]2O[C@@H](n3cnc4c(NCC(c5ccccc5)c5ccccc5)nc(NCCO)nc43)[C@H](O)[C@@H]2O)n1.O=CO` ?
1367.6

Would you kindly repeat that for CCc1noc(C2OC(n3cnc4c(NCC(c5ccccc5)c5ccccc5)nc(NC5CCN(Cc6ccccc6)C5)nc43)C(O)C2O)n1 (stereo not drawn) ?
>3738.84
